test system: Canis familiaris; assay: Mean arterial blood pressure (MABP) in an acutely instrumented anesthetized dog model at 0.1 mg/kg intravenous dose; assay type: functional, Canis lupus familiaris
Recorded measurements of MABP change from control, one per entry
Give a bare numeral; the unit % is implied.

Sample answers from the record:
[
  {
    "Chem Smiles": "Cc1nc(O)ccc1-c1ccc(-n2ccnc2)cc1",
    "Assayed Target": "Canis familiaris",
    "MABP change from control / %": -9.5
  },
  {
    "Chem Smiles": "Cc1nc(O)c(N)cc1-c1ccc(-n2ccnc2)cc1",
    "Assayed Target": "Canis familiaris",
    "MABP change from control / %": -5
  },
  {
    "Chem Smiles": "Cc1c(-c2ccc(-n3ccnc3)cc2)cnc(O)c1C#N",
    "Assayed Target": "Canis familiaris",
    "MABP change from control / %": 5.5
  },
  {
    "Chem Smiles": "Cc1[nH]c(=O)c(C#N)cc1-c1ccncc1",
    "Assayed Target": "Canis familiaris",
    "MABP change from control / %": -13
  },
  {
    "Chem Smiles": "Cc1nc(O)c(C#N)c(C)c1-c1ccc(-n2ccnc2)cc1",
    "Assayed Target": "Canis familiaris",
    "MABP change from control / %": -17.5
  },
  {
    "Chem Smiles": "Cc1c(-c2ccc(-n3ccnc3)cc2)cc(C#N)c(=O)n1C",
    "Assayed Target": "Canis familiaris",
    "MABP change from control / %": 2
  }
]

Proceed to the following item.
Task: Look at this molecule and give its reported MABP change from control. Cc1nc(O)c(C#N)cc1-c1ccc(-n2ccnc2)cc1
Output: -9.7

----------
test system: Canis familiaris; experiment: Mean arterial blood pressure (MABP) in an acutely instrumented anesthetized dog model at 1 mg/kg intravenous dose; type: functional, Canis lupus familiaris
Recorded measurements of MABP change from control, one per entry
Give a bare numeral; the unit % is implied.

Task: Look at this compound and give its reported MABP change from control. Cc1nc(O)ccc1-c1ccc(-n2ccnc2)cc1
Output: -19.5

----------
tested on: Canis familiaris; test: Myocardial contractility in an acutely instrumented anesthetized dog model at 0.03 mg/kg intravenous dose; format: functional, Canis lupus familiaris, Myocardium
Recorded measurements of Change from Control (LV dp/dt), one per entry
Returns: string containing the number followed by the unit.

Sample answers from the record:
[
  {
    "Chem Smiles": "Cc1nc(O)c(C#N)c(C)c1-c1ccc(-n2ccnc2)cc1",
    "Change from Control (LV dp/dt)": "86%"
  },
  {
    "Chem Smiles": "Cc1nc(O)c(C#N)cc1-c1ccc(-n2ccnc2)cc1",
    "Change from Control (LV dp/dt)": "122.7%"
  },
  {
    "Chem Smiles": "Cc1[nH]c(=O)c(C#N)cc1-c1ccncc1",
    "Change from Control (LV dp/dt)": "77.5%"
  }
]

Task: Look at this compound and give its reported Change from Control (LV dp/dt). Cc1c(-c2ccc(-n3ccnc3)cc2)cnc(O)c1C#N
Output: 12%

Task: Look at this compound and give its reported Change from Control (LV dp/dt). Cc1nc(O)ccc1-c1ccc(-n2ccnc2)cc1
Output: 85%

Task: Look at this compound and give its reported Change from Control (LV dp/dt). Cc1nc(O)c(N)cc1-c1ccc(-n2ccnc2)cc1
Output: 80.5%

Task: Look at this compound and give its reported Change from Control (LV dp/dt). Cc1c(-c2ccc(-n3ccnc3)cc2)cc(C#N)c(=O)n1C
Output: 10%
